Values were extracted from the supplement of paper PMC5998384.

# Test system: HeLa Kyoto
# Test details: thermal stability score vs G1/S (z-score of summed log2 fold changes over temperatures); higher = more thermally stable than in G1/S
# Experimental parameters: cell cycle stage: mitosis
Parameter measured: thermal stability score
Lab note: write the figure by itself, no unit.

Give the reported thermal stability score for this sequence. MASAGDTQAGPRDAADQNFDYMFKLLLIGNSSVGKTSFLFRYADDSFTPAFVSTVGIDFKVKTVYRHDKRIKLQIWDTAGQERYRTITTAYYRGAMGFLLMYDIANQESFAAVQDWATQIKTYSWDNAQVILVGNKCDLEDERVVPAEDGRRLADDLGFEFFEASAKENINVKQVFERLVDVICEKMNESLEPSSSSGSNGKGPAVGDAPAPQPSSCSC [RAB3D] -1.58

Give the reported thermal stability score for this sequence. MKRQGASSERKRARIPSGKAGAANGFLMEVCVDSVESAVNAERGGADRIELCSGLSEGGTTPSMGVLQVVKQSVQIPVFVMIRPRGGDFLYSDREIEVMKADIRLAKLYGADGLVFGALTEDGHIDKELCMSLMAICRPLPVTFHRAFDMVHDPMAALETLLTLGFERVLTSGCDSSALEGLPLIKRLIEQAKGRIVVMPGGGITDRNLQRILEGSGATEFHCSARSTRDSGMKFRNSSVAMGASLSCSEYSLKVTDVTKVRTLNAIAKNILV [CUTC] -0.357

Give the reported thermal stability score for this sequence. MSVGFIGAGQLAYALARGFTAAGILSAHKIIASSPEMNLPTVSALRKMGVNLTRSNKETVKHSDVLFLAVKPHIIPFILDEIGADVQARHIVVSCAAGVTISSVEKKLMAFQPAPKVIRCMTNTPVVVQEGATVYATGTHALVEDGQLLEQLMSSVGFCTEVEEDLIDAVTGLSGSGPAYAFMALDALADGGVKMGLPRRLAIQLGAQALLGAAKMLLDSEQHPCQLKDNVCSPGGATIHALHFLESGGFRSLLINAVEASCIRTRELQSMADQEKISPAALKKTLLDRVKLESPTVSTLTPSSPGKLLTRSLALGGKKD [PYCR2] -3.51

----------
# Test system: HeLa Kyoto
# Test details: melting temperature (median over replicates), in situ; higher = more thermally stable
# Experimental parameters: cell cycle stage: G1/S
Parameter measured: melting temperature
Number plus unit, in that order.

Give the reported melting temperature for this sequence. MEANGLGPQGFPELKNDTFLRAAWGEETDYTPVWCMRQAGRYLPEFRETRAAQDFFSTCRSPEACCELTLQPLRRFPLDAAIIFSDILVVPQALGMEVTMVPGKGPSFPEPLREEQDLERLRDPEVVASELGYVFQAITLTRQRLAGRVPLIGFAGAPWTLMTYMVEGGGSSTMAQAKRWLYQRPQASHQLLRILTDALVPYLVGQVVAGAQALQLFESHAGHLGPQLFNKFALPYIRDVAKQVKARLREAGLAPVPMIIFAKDGHFALEELAQAGYEVVGLDWTVAPKKARECVGKTVTLQGNLDPCALYASEEEIGQLVKQMLDDFGPHRYIANLGHGLYPDMDPEHVGAFVDAVHKHSRLLRQN [UROD] 56.5 °C

----------
# System: HeLa Kyoto
# Test details: melting temperature (median over replicates), in situ; higher = more thermally stable
# Experimental parameters: cell cycle stage: mitosis
Parameter measured: melting temperature (°C)
Give the value, in units of °C, as a plain number.

Give the reported melting temperature for this sequence. MAVSESQLKKMVSKYKYRDLTVRETVNVITLYKDLKPVLDSYVFNDGSSRELMNLTGTIPVPYRGNTYNIPICLWLLDTYPYNPPICFVKPTSSMTIKTGKHVDANGKIYLPYLHEWKHPQSDLLGLIQVMIVVFGDEPPVFSRPISASYPPYQATGPPNTSYMPGMPGGISPYPSGYPPNPSGYPGCPYPPGGPYPATTSSQYPSQPPVTTVGPSRDGTISEDTIRASLISAVSDKLRWRMKEEMDRAQAELNALKRTEEDLKKGHQKLEEMVTRLDQEVAEVDKNIELLKKKDEELSSALEKMENQSENNDIDEVIIPTAPLYKQILNLYAEENAIEDTIFYLGEALRRGVIDLDVFLKHVRLLSRKQFQLRALMQKARKTAGLSDLY [TSG101] 50.2

Give the reported melting temperature for this sequence. MSDLRITEAFLYMDYLCFRALCCKGPPPARPEYDLVCIGLTGSGKTSLLSKLCSESPDNVVSTTGFSIKAVPFQNAILNVKELGGADNIRKYWSRYYQGSQGVIFVLDSASSEDDLEAARNELHSALQHPQLCTLPFLILANHQDKPAARSVQEIKKYFELEPLARGKRWILQPCSLDDMDALKDSFSQLINLLEEKDHEAVRM [ARL15] 53.2

Give the reported melting temperature for this sequence. MDTGVIEGGLNVTLTIRLLMHGKEVGSIIGKKGESVKKMREESGARINISEGNCPERIITLAGPTNAIFKAFAMIIDKLEEDISSSMTNSTAASRPPVTLRLVVPASQCGSLIGKGGCKIKEIRESTGAQVQVAGDMLPNSTERAITIAGIPQSIIECVKQICVVMLETLSQSPPKGVTIPYRPKPSSSPVIFAGGQDRYSTGSDSASFPHTTPSMCLNPDLEGPPLEAYTIQGQYAIPQPDLTKLHQLAMQQSHFPMTHGNTGFSGIESSSPEVKGYWGLDASAQTTSHELTIPNDLIGCIIGRQGAKINEIRQMSGAQIKIANPVEGSTDRQVTITGSAASISLAQYLINVRLSSETGGMGSS [PCBP2] 49.5

----------
# Tested on: HeLa Kyoto
# Test details: thermal stability score vs G1/S (z-score of summed log2 fold changes over temperatures); higher = more thermally stable than in G1/S
# Experimental parameters: cell cycle stage: mitosis
Parameter measured: thermal stability score

Give the reported thermal stability score for this sequence. MALLSTVRGATWGRLVTRHFSHAARHGERPGGEELSRLLLDDLVPTSRLELLFGMTPCLLALQAARRSVARLLLQAGKAGLQGKRAELLRMAEARDIPVLRPRRQKLDTMCRYQVHQGVCMEVSPLRPRPWREAGEASPGDDPQQLWLVLDGIQDPRNFGAVLRSAHFLGVDKVITSRRNSCPLTPVVSKSSAGAMEVMDVFSTDDLTGFLQTKAQQGWLVAGTVGCPSTEDPQSSEIPIMSCLEFLWERPTLLVLGNEGSGLSQEVQASCQLLLTILPRRQLPPGLESLNVSVAAGILLHSICSQRKGFPTEGERRQLLQDPQEPSARSEGLSMAQHPGLSSGPEKERQNEG [MRM1] -1.81

Give the reported thermal stability score for this sequence. MQPQSVLHSGYFHPLLRAWQTATTTLNASNLIYPIFVTDVPDDIQPITSLPGVARYGVKRLEEMLRPLVEEGLRCVLIFGVPSRVPKDERGSAADSEESPAIEAIHLLRKTFPNLLVACDVCLCPYTSHGHCGLLSENGAFRAEESRQRLAEVALAYAKAGCQVVAPSDMMDGRVEAIKEALMAHGLGNRVSVMSYSAKFASCFYGPFRDAAKSSPAFGDRRCYQLPPGARGLALRAVDRDVREGADMLMVKPGMPYLDIVREVKDKHPDLPLAVYHVSGEFAMLWHGAQAGAFDLKAAVLEAMTAFRRAGADIIITYYTPQLLQWLKEE [ALAD] -2.88

Give the reported thermal stability score for this sequence. MSESFDCAKCNESLYGRKYIQTDSGPYCVPCYDNTFANTCAECQQLIGHDSRELFYEDRHFHEGCFRCCRCQRSLADEPFTCQDSELLCNDCYCSAFSSQCSACGETVMPGSRKLEYGGQTWHEHCFLCSGCEQPLGSRSFVPDKGAHYCVPCYENKFAPRCARCSKTLTQGGVTYRDQPWHRECLVCTGCQTPLAGQQFTSRDEDPYCVACFGELFAPKCSSCKRPIVGLGGGKYVSFEDRHWHHNCFSCARCSTSLVGQGFVPDGDQVLCQGCSQAGP [FHL3] -1.78

Give the reported thermal stability score for this sequence. MTELQSALLLRRQLAELNKNPVEGFSAGLIDDNDLYRWEVLIIGPPDTLYEGGVFKAHLTFPKDYPLRPPKMKFITEIWHPNVDKNGDVCISILHEPGEDKYGYEKPEERWLPIHTVETIMISVISMLADPNGDSPANVDAAKEWREDRNGEFKRKVARCVRKSQETAFE [UBE2G1] 0.392

Give the reported thermal stability score for this sequence. "MSASAPAAEGEGTPTQPASEKEPEMPGPREESEEEEDEDDEEEEEEEKEKSLIVEGKREKKKVERLTMQVSSLQREPFTIAQGKGQKLCEIERIHFFLSKKKTDELRNLHKLLYNRPGTVSSLKKNVGQFSGFPFEKGSVQYKKKEEMLKKFRNAMLKSICEVLDLERSGVNSELVKRILNFLMHPKPSGKPLPKSKKTCSKGSKKERNSSGMARKAKRTKCPEILSDESSSDEDEKKNKEESSDDEDKESEEEPPKKTAKREKPKQKATSKSKKSVKSANVKKADSSTTKKNQNSSKKESESEDSSDDEPLIKKLKKPPTDEELKETIKKLLASANLEEVTMKQICKKVYENYPTYDLTERKDFIKTTVKELIS" 13.2
